Parameter: furin cleavage Z-score. Scope: all listed entries.
Molecular target: furin, P09958;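 further: purified furin at 1:10 enzyme:substrate in 50 mM HEPES pH 7.5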
Sequence (P09958 whole entry): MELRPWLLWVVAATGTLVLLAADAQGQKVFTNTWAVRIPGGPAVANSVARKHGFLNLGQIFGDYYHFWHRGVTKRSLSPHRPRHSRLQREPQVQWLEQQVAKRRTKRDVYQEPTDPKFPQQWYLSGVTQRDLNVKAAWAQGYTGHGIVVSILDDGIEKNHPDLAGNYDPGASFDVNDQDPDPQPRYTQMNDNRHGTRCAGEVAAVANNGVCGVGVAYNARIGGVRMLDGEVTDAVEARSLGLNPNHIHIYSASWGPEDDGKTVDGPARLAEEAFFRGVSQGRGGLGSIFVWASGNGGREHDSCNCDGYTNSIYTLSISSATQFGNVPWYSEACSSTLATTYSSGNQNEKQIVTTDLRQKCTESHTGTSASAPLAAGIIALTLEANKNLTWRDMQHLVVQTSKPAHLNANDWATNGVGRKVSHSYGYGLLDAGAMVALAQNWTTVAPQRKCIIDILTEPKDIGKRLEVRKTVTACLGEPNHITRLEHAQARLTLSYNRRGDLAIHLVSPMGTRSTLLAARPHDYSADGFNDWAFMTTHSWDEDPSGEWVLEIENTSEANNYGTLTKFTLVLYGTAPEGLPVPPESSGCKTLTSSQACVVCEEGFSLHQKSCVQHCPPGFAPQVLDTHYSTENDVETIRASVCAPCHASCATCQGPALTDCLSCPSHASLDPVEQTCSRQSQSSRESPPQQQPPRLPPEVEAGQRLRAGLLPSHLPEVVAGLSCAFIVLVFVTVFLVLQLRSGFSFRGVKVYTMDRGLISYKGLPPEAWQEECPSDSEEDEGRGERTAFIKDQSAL
Test: furin cleavage Z-score vs untreated control; higher = more cleavage, active = 3.5 or more, inactive = 1 or less, 8 variable residues between constant flanks
Details: 15 min
The list shows a part of the results. The true hit rate is not given.
I only need the number, thanks.

Solved cases below.
So for CAPGAATAFVAGNASASA [HC1072] , the logged furin cleavage Z-score turned out to be 1.72

So for CATTTCSGSWAGNASASA [HC1878] , the logged furin cleavage Z-score turned out to be 0.367

So for CATPPCSGSWAGNASASA [HC1859] , the logged furin cleavage Z-score turned out to be -0.533

So for CAPRARSRRSAGNASASA [FS-1053] , the logged furin cleavage Z-score turned out to be 10.8

So for CASFSIFLLAAGNASASA [HC247] , the logged furin cleavage Z-score turned out to be -0.433

So for CATTTRKNRSAGNASASA [FS-1498] , the logged furin cleavage Z-score turned out to be 11

Further cases:
So for CASLRAFTEAAGNASASA [HC1538] , the logged furin cleavage Z-score turned out to be -1.13

So for CAPRAAERRSAGNASASA [FS-74] , the logged furin cleavage Z-score turned out to be -1.99

So for CAVHKRSAERAGNASASA [FS-2854] , the logged furin cleavage Z-score turned out to be 4.06

So for CALRARKNRSAGNASASA [FS-942] , the logged furin cleavage Z-score turned out to be 8.12
